The values you see were collected from PubChem BioAssay (NCI).

I'd be grateful if you could share measured TGI for these entries.
System: HCT-116 colon
Test: NCI tumour cell line growth inhibition, 48 h
*1 amine or outer side, *2 acyl side, *3 side chain or, on linkers, in order; H or OH if unused. Where a SMILES comes first, the peptide text is derived from it. Bridges are numbered along the chain shown (N, C = ends). [ ]: non-standard residue; d: D form. ξ: configuration not given here. X35 = CC[C@H](C)[C@@H](N[*:1])[C@@H](O)CC(=O)O[C@H](C(=O)[C@H](C)C(=O)[*:2])C(C)C; NMeY = CN[C@@H](Cc1ccc(O)cc1)C(=O)O; dNMeL = CN[C@H](CC(C)C)C(=O)O; ξΔPro = O=C(O)C1C=CCN1
One number for each entry, in µM.

Consider the following illustrative entries.
compound	unitTag	TGI
CC[C@H](C)[C@H]1NC(=O)[C@@H](NC(=O)[C@@H](CC(C)C)N(C)C(=O)C2C=CCN2)[C@@H](C)OC(=O)[C@H](Cc2ccc(OC)cc2)N(C)C(=O)[C@@H]2CCCN2C(=O)[C@H](CC(C)C)NC(=O)[C@@H](C)C(=O)[C@H](C(C)C)OC(=O)C[C@@H]1O (stereo partly drawn) (H-[ξΔPro][dNMeL]T[X35]LP[NMeY](Me); ester 3-C)	µM	5.41
COc1ccc([C@@H](O)c2cc(-c3ncnc4cc(N5CCOCC5)ccc34)c(F)cc2Cl)nn1	µM	21.4

Please give TGI, item by item, for the list that follows.
1. CCCCCCNC(=O)n1cc(F)c(=O)[nH]c1=O
2. C/C(=C(/c1ccc(O)cc1)c1ccc(Cl)cc1)c1ccccc1

-- reply
1. 15.3
2. 1.27

-- ask Give recorded TGI. CCCCCCCCCCCCCCCCCCNC(=O)OCC(CNS(=O)(=O)CCC[n+]1cccc2ccccc21)COC (stereo not drawn)
-- reply 5.78

* * *

Tested on: UACC-257 melanoma
Test: NCI tumour cell line growth inhibition, 48 h
Can you tell me TGI for the items I'm about to list?
Give bare numbers, in µM.

Field: example entries. Status: answers known.
compound	propertyName	unitTag	reportedValue
COc1c(Sc2ccccc2)cc(Sc2ccccc2)c2cccnc12	TGI	µM	41.1
O=C(NCCCCCCO)c1cccc2cc3ccccc3nc12	TGI	µM	33.9
CC1CN=C(c2ccc(CN3CCC(C4CCN(Cc5ccc(C6=NCC(C)N6)cc5)CC4)CC3)cc2)N1 (configuration not stated)	TGI	µM	52.4
Nn1c(Sc2nc3ccccc3c(=O)n2N)nc2ccccc2c1=O	TGI	µM	38.1
CCC[CH2][Sn]1([CH2]CCC)[O]C(=O)c2ccc(N)cc2[O]1	TGI	µM	2.11

Report TGI for every entry below.
1. CSc1nsc(S/C=C\C(=O)c2ccc(C)cc2)n1
2. CC(C)(CN1CCCCC1)C(/C=C/c1ccccc1)=N\NC(=O)N/N=C(/C=C/c1ccccc1)C(C)(C)CN1CCCCC1

-- reply
1. 49.2
2. 3.1

-- ask Fill in TGI for COc1ccc(OC)c(C[P+](c2ccccc2)(c2ccccc2)c2ccccc2)c1 tested with UACC-257 melanoma.
-- reply 14.4

* * *

Tested on: A549 NSCLC
Experiment: NCI tumour cell line growth inhibition, 48 h
propertyName: TGI

>>> print(df.to_string())
                                   compound  systemundertest  propertyname  reportedvalue
0                    CCN(CC)/[N+]([O-])=N/O       A549 NSCLC           TGI       > 100 µM
1  CCCCCCNC(=O)Oc1ccc(/C(=C(/C)Cc2ccc(OC)cc2)c2ccc(OCCN(C)C)cc2)cc1       A549 NSCLC           TGI        10.8 µM
2  COc1ccc2ccccc2c1CN1CCOCCOCCN(Cc2c(OC)ccc3ccccc23)CCOCCOCC1       A549 NSCLC           TGI       > 100 µM
3  C[C@]12CCC(=O)C=C1CC[C@@H]1[C@@H]2[C@@H](O)C[C@@]2(C)[C@H]1CC[C@]2(O)C(=O)COC(=O)CCC1CCCC1       A549 NSCLC           TGI       > 100 µM
4  CC1=NOC(=O)C1N=Nc1ccc(Br)c(C)c1 (centres undefined)       A549 NSCLC           TGI          46 µM
5  CC1=C(/C=C/C(C)=C/C=C/C(C)=C/C=C/C=C(C)/C=C/C=C(C)/C=C/C2=C(C)C(=O)C(O)CC2(C)C)C(C)(C)CC(O)C1=O (centres undefined)       A549 NSCLC           TGI       > 100 µM
6  C=CCOC1(CC=C)C(=O)OC2C(O)COC21O (centres undefined)       A549 NSCLC           TGI       > 100 µM
7           O=c1c2cc(Br)ccc2ncn1COCc1ccccc1       A549 NSCLC           TGI       > 100 µM

Consider the record given below.
-- ask Could you please provide reported TGI for CC1(O)CCC2(C)C(=O)C1(C)CCC21OCCO1 (centres undefined) ? Thanks!
-- reply > 100 µM
